Each item that follows carries a reported IC50.
# test.system: Histone acetyltransferase KAT2B (Homo sapiens)
# Sequence (Q92831 whole entry, the tested form may be a part): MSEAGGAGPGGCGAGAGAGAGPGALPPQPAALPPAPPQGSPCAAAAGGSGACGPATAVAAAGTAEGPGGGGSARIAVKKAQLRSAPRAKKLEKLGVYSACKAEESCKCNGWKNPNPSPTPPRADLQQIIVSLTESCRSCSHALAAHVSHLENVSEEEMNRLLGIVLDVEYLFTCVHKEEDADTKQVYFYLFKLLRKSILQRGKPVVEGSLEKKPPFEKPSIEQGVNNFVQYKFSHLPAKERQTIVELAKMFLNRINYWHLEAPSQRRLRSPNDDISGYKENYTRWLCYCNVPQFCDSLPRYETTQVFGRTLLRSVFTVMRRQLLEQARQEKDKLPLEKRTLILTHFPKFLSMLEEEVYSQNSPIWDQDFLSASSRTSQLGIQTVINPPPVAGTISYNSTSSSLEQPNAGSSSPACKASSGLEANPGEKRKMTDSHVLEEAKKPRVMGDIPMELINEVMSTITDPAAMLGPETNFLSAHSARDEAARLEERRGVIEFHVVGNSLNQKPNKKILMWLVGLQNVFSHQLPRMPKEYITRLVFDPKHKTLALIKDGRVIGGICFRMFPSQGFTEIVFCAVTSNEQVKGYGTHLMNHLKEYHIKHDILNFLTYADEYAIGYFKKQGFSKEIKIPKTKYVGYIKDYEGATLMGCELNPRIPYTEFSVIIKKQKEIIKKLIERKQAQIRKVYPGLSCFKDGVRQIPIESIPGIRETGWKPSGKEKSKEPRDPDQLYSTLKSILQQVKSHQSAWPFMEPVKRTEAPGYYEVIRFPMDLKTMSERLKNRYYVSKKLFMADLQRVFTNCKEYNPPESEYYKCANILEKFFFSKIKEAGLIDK
# experiment.notes: Inhibition of GST-fused recombinant HAT PCAF expressed in Escherichia coli by filter assay

As a guide, the following entries are already answered.
O=c1cc(-c2ccccc2)sn1-c1ccccc1 > 200 µM
O=C(Nc1ccccc1)OCc1cc(=O)n(-c2ccccc2)s1 > 200 µM
[N-]=[N+]=NCc1cc(=O)n(-c2ccccc2)s1 58 µM
COc1sn(-c2ccccc2)c(=O)c1C > 200 µM

As a next step, examine the molecule that follows.
Please look up its IC50: Cc1cc(=O)n(-c2ccccc2)s1
> 200 µM
